Values from ChEMBL document CHEMBL1909046

# PROCEDURE_TEXT: DRUGMATRIX: Phorbol Ester radioligand binding (ligand: [3H] PDBu)
# Format: cell membranes, Mus musculus, ICR, Brain, Membrane
# PROTOCOL_CONDITIONS: Not Active = under 50% inhibition at 10 µM

{"COMPOUND": "NCC[C@H](O)C(=O)N[C@@H]1C[C@H](N)[C@@H](O[C@H]2O[C@H](CN)[C@@H](O)[C@H](O)[C@H]2O)[C@H](O)[C@H]1O[C@H]1O[C@H](CO)[C@@H](O)[C@H](N)[C@H]1O", "Ki": "Not Active"}
{"COMPOUND": "CCC[C@@H]1C[C@@H](C(=O)N[C@@H]([C@H]2O[C@H](SC)[C@H](O)[C@@H](O)[C@H]2O)[C@@H](C)O)N(C)C1", "Ki": "Not Active"}
{"COMPOUND": "C=C1C(=O)O[C@@H]2C3O[C@]3(C)CC/C=C(\\C)CC[C@@H]12 (stereo partly drawn)", "Ki": "Not Active"}

---

# PROCEDURE_TEXT: DRUGMATRIX: Phosphodiesterase PDE4 enzyme inhibition (substrate: [3H]cAMP + cAMP)
# PROTOCOL_CONDITIONS: u-937; Not Active = under 50% inhibition at 10 µM
VALUE_TYPE: Ki

{"SUBSTANCE": "GOLD SODIUM THIOMALATE", "RESULT_VALUE": "Not Active"}
{"SUBSTANCE": "OXALIPLATIN", "RESULT_VALUE": "Not Active"}
{"SUBSTANCE": "IVERMECTIN", "RESULT_VALUE": "Not Active"}
{"SUBSTANCE": "CISPLATIN", "RESULT_VALUE": "Not Active"}

get_value(item= `CARBOPLATIN` , readout=Ki) returns Not Active

---

# ASSAY_TARGET: Melanocortin receptor 3 (Homo sapiens, UniProt P41968); also: in other assays of this panel Not Active means under 50% inhibition at 10 µM
# Sequence (P41968 whole entry): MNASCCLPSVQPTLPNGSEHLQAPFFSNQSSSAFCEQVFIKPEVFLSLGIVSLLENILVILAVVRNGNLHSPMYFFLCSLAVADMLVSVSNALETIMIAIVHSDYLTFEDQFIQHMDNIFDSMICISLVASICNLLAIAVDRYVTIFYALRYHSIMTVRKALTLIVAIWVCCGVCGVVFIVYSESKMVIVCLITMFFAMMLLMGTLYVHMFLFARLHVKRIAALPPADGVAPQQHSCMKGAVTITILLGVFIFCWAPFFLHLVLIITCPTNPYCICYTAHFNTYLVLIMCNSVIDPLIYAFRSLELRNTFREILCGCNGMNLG
# Assay type: cell membranes, Membrane
# PROTOCOL_CONDITIONS: hek293
VALUE_TYPE: IC50

Example molecules with recorded IC50:
{"MOLECULE": "CN[C@@H]1[C@@H](O)[C@@H](O[C@@H]2[C@@H](O)[C@H](O[C@H]3OC(CN)=CC[C@H]3N)[C@@H](N)C[C@H]2N)OC[C@]1(C)O", "IC50": "Not Active"}
{"MOLECULE": "CN(N=O)C(=O)N[C@@H](C=O)[C@@H](O)[C@H](O)[C@H](O)CO", "IC50": "Not Active"}
{"MOLECULE": "CC[N+](CC)(CC)CCOc1cccc(OCC[N+](CC)(CC)CC)c1OCC[N+](CC)(CC)CC.[I-].[I-].[I-] [GALLAMINE TRIETHIODIDE]", "IC50": "Not Active"}
{"MOLECULE": "CN(C)[C@@H]1C(O)=C(C(N)=O)C(=O)[C@@]2(O)C(O)=C3C(=O)c4c(O)cccc4[C@@](C)(O)[C@H]3[C@H](O)[C@@H]12", "IC50": "Not Active"}
{"MOLECULE": "O=C1OCCN1/N=C/c1ccc([N+](=O)[O-])o1", "IC50": "Not Active"}
{"MOLECULE": "CCCSc1ccc2nc(NC(=O)OC)[nH]c2c1", "IC50": "Not Active"}

Kindly note: Melanocortin receptor 3 (Homo sapiens, UniProt P41968), `COC1=CC(=O)C[C@@H](C)[C@]12Oc1c(Cl)c(OC)cc(OC)c1C2=O` , IC50 value reported: Not Active

Kindly note: Melanocortin receptor 3 (Homo sapiens, UniProt P41968), CCc1cccc2c3c([nH]c12)C(CC)(CC(=O)O)OCC3 (centres undefined) , IC50 value reported: Not Active

Kindly note: Melanocortin receptor 3 (Homo sapiens, UniProt P41968), `CC1(C)[C@@H](O[C@H]2O[C@H](C(=O)O)[C@@H](O)[C@H](O)[C@H]2O[C@@H]2O[C@H](C(=O)O)[C@@H](O)[C@H](O)[C@H]2O)CC[C@]2(C)[C@H]3C(=O)C=C4[C@@H]5C[C@@](C)(C(=O)O)CC[C@]5(C)CC[C@@]4(C)[C@]3(C)CC[C@@H]12` , IC50 value reported: Not Active

Kindly note: Melanocortin receptor 3 (Homo sapiens, UniProt P41968), `CC(C)(O)c1ccccc1CC[C@@H](SCC1(CC(=O)O)CC1)c1cccc(/C=C/c2ccc3ccc(Cl)cc3n2)c1` , IC50 value reported: Not Active

Kindly note: Melanocortin receptor 3 (Homo sapiens, UniProt P41968), `O=c1cc(-c2ccccc2)oc2c1ccc1ccccc12` , IC50 value reported: Not Active

Kindly note: Melanocortin receptor 3 (Homo sapiens, UniProt P41968), CSc1ccc2c(c1)N(CCC1CCCCN1C)c1ccccc1S2 (centres undefined) , IC50 value reported: Not Active

Kindly note: Melanocortin receptor 3 (Homo sapiens, UniProt P41968), `CN(C)CCCN1c2ccccc2CCc2ccc(Cl)cc21` , IC50 value reported: Not Active

Kindly note: Melanocortin receptor 3 (Homo sapiens, UniProt P41968), `COc1ccc([C@@H]2Sc3ccccc3N(CCN(C)C)C(=O)[C@@H]2OC(C)=O)cc1` , IC50 value reported: Not Active

Kindly note: Melanocortin receptor 3 (Homo sapiens, UniProt P41968), `CC1(C)S[C@@H]2[C@H](NC(=O)[C@H](NC(=O)N3CCNC3=O)c3ccccc3)C(=O)N2[C@H]1C(=O)O` , IC50 value reported: Not Active

Kindly note: Melanocortin receptor 3 (Homo sapiens, UniProt P41968), `Clc1ccccc1C(c1ccccc1)(c1ccccc1)n1ccnc1` , IC50 value reported: Not Active

Kindly note: Melanocortin receptor 3 (Homo sapiens, UniProt P41968), `COC(=O)[C@H](c1ccccc1Cl)N1CCc2sccc2C1` , IC50 value reported: Not Active

Kindly note: Melanocortin receptor 3 (Homo sapiens, UniProt P41968), `O=c1[nH]cc(F)c(=O)[nH]1` , IC50 value reported: Not Active

Kindly note: Melanocortin receptor 3 (Homo sapiens, UniProt P41968), `COc1ccc2cc(CC(=O)O)ccc2c1` , IC50 value reported: Not Active

Kindly note: Melanocortin receptor 3 (Homo sapiens, UniProt P41968), `CC=CC(=O)N(CC)c1ccccc1C` , IC50 value reported: Not Active

Kindly note: Melanocortin receptor 3 (Homo sapiens, UniProt P41968), `CN[C@H](CC(C)C)C(=O)N[C@H]1C(=O)N[C@@H](CC(N)=O)C(=O)N[C@H]2C(=O)N[C@H]3C(=O)N[C@H](C(=O)N[C@H](C(=O)O)c4cc(O)cc(O)c4-c4cc3ccc4O)[C@H](O)c3ccc(c(Cl)c3)Oc3cc2cc(c3O[C@@H]2O[C@H](CO)[C@@H](O)[C@H](O)[C@H]2O[C@H]2C[C@](C)(N)[C@H](O)[C@H](C)O2)Oc2ccc(cc2Cl)[C@H]1O` , IC50 value reported: Not Active

Kindly note: Melanocortin receptor 3 (Homo sapiens, UniProt P41968), `COC(=O)C1=C(C)NC(C)=C(C(=O)OC)C1c1ccccc1[N+](=O)[O-]` , IC50 value reported: Not Active

Kindly note: Melanocortin receptor 3 (Homo sapiens, UniProt P41968), `CCOC(=O)c1ccc(N)cc1` , IC50 value reported: Not Active

Kindly note: Melanocortin receptor 3 (Homo sapiens, UniProt P41968), `CC(C)(S)[C@@H](N)C(=O)O` , IC50 value reported: Not Active

Kindly note: Melanocortin receptor 3 (Homo sapiens, UniProt P41968), `CC(=O)S[C@@H]1CC2=CC(=O)CC[C@]2(C)[C@H]2CC[C@@]3(C)[C@@H](CC[C@@]34CCC(=O)O4)[C@H]12` , IC50 value reported: Not Active

Kindly note: Melanocortin receptor 3 (Homo sapiens, UniProt P41968), `Oc1c(I)cc(I)c2cccnc12` , IC50 value reported: Not Active

Kindly note: Melanocortin receptor 3 (Homo sapiens, UniProt P41968), `Oc1cccc2cccnc12` , IC50 value reported: Not Active

Kindly note: Melanocortin receptor 3 (Homo sapiens, UniProt P41968), `O=C1c2c(O)ccc(O)c2C(=O)c2c(NCCNCCO)ccc(NCCNCCO)c21` , IC50 value reported: Not Active

Kindly note: Melanocortin receptor 3 (Homo sapiens, UniProt P41968), `CC(/C=C1\SC(=S)N(CC(=O)O)C1=O)=C\c1ccccc1` , IC50 value reported: Not Active

Kindly note: Melanocortin receptor 3 (Homo sapiens, UniProt P41968), O=P1(NCCCl)OCCCN1CCCl (centres undefined) [IFOSFAMIDE] , IC50 value reported: Not Active

Kindly note: Melanocortin receptor 3 (Homo sapiens, UniProt P41968), Nc1ccc(S(N)(=O)=O)cc1 [SULFANILAMIDE] , IC50 value reported: Not Active

Kindly note: Melanocortin receptor 3 (Homo sapiens, UniProt P41968), `COc1ccc(CN(CCN(C)C)c2ccccn2)cc1` , IC50 value reported: Not Active

Kindly note: Melanocortin receptor 3 (Homo sapiens, UniProt P41968), COc1c(N2CCNC(C)C2)c(F)cc2c(=O)c(C(=O)O)cn(C3CC3)c12 (centres undefined) , IC50 value reported: Not Active

Kindly note: Melanocortin receptor 3 (Homo sapiens, UniProt P41968), COc1c(C)c2c(c(O)c1C/C=C(\C)CCC(=O)OCCN1CCOCC1)C(=O)OC2 [MYCOPHENOLATE MOFETIL] , IC50 value reported: Not Active
